- Test system: Human immunodeficiency virus 1
- methodNotes: In vitro antiviral activity against fully replicating HIV1 NL4-3 harboring Gag T332S/V362I/prR41G mutant
- Format: functional, organism-based
- particulars: Human immunodeficiency virus 1, NL4-3
EC50 under 20 nM gets Criterion met, anything at or over 20 nM gets Criterion not met.

compound	labelValue
C=C(C)[C@@H]1CC[C@]2(NCCN3CCS(=O)(=O)CC3)CC[C@]3(C)[C@H](CC[C@@H]4[C@@]5(C)CC=C(C6=CC[C@](COc7ccccn7)(C(=O)O)CC6)C(C)(C)[C@@H]5CC[C@]43C)[C@@H]12	Criterion met

hey, is EC50 for C=C(C)[C@@H]1CC[C@]2(NCCN3CCS(=O)(=O)CC3)CC[C@]3(C)[C@H](CC[C@@H]4[C@@]5(C)CC=C(C6=CCC(COc7cccc(F)c7)(C(=O)O)CC6)C(C)(C)[C@@H]5CC[C@]43C)[C@@H]12 (mixture of isomers) lower than 20 nM or not? Criterion not met

Identify whether the compound `C=C(C)[C@@H]1CC[C@]2(NCCN3CCS(=O)(=O)CC3)CC[C@]3(C)[C@H](CC[C@@H]4[C@@]5(C)CC=C(C6=CC[C@@](COc7ccccn7)(C(=O)O)CC6)C(C)(C)[C@@H]5CC[C@]43C)[C@@H]12` records EC50 below 20 nM. Criterion met

Criterion: EC50 strictly below 20 nM. Is it met by C=C(C)[C@@H]1CC[C@]2(NCCN3CCS(=O)(=O)CC3)CC[C@]3(C)[C@H](CC[C@@H]4[C@@]5(C)CC=C(C6=CCC(COc7cccc(C#N)n7)(C(=O)O)CC6)C(C)(C)[C@@H]5CC[C@]43C)[C@@H]12 (mixture of isomers) ? Criterion met

API: query returns whether the compound falls strictly under 20 nM in EC50. Query: C=C(C)[C@@H]1CC[C@]2(NCCN3CCS(=O)(=O)CC3)CC[C@]3(C)[C@H](CC[C@@H]4[C@@]5(C)CC=C(C6=CC[C@@](COc7ncccc7C#N)(C(=O)O)CC6)C(C)(C)[C@@H]5CC[C@]43C)[C@@H]12 [ZEGRUVIRIMAT] Criterion met

Please state whether EC50 is below 20 nM for C=C(C)[C@@H]1CC[C@]2(NCCN3CCS(=O)(=O)CC3)CC[C@]3(C)[C@H](CC[C@@H]4[C@@]5(C)CC=C(C6=CCC(COc7cc(C#N)ccn7)(C(=O)O)CC6)C(C)(C)[C@@H]5CC[C@]43C)[C@@H]12 (mixture of isomers) Criterion not met

Strictly below 20 nM in EC50? C=C(C)[C@@H]1CC[C@]2(NCCN3CCS(=O)(=O)CC3)CC[C@]3(C)[C@H](CC[C@@H]4[C@@]5(C)CC=C(C6=CCC(COc7cccc(Cl)c7)(C(=O)O)CC6)C(C)(C)[C@@H]5CC[C@]43C)[C@@H]12 (mixture of isomers) Criterion not met

Would you kindly verify if EC50 of C=C(C)[C@@H]1CC[C@]2(NCCN3CCS(=O)(=O)CC3)CC[C@]3(C)[C@H](CC[C@@H]4[C@@]5(C)CC=C(C6=CCC(COc7nnnn7C)(C(=O)O)CC6)C(C)(C)[C@@H]5CC[C@]43C)[C@@H]12 (mixture of isomers) is strictly less than 20 nM? Criterion met

---

- Tested on: Human immunodeficiency virus 1
- methodNotes: In vitro antiviral activity against fully replicating wild type HIV1 NL4-3
- Type: functional, organism-based
- particulars: Human immunodeficiency virus 1, NL4-3
quantityKind: pEC50
One number for each entry, as −log10 of the molar value.

Here are 7 compounds together with their reported answers.
compound	pEC50
C=C(C)[C@@H]1CC[C@]2(NCCN3CCS(=O)(=O)CC3)CC[C@]3(C)[C@H](CC[C@@H]4[C@@]5(C)CC=C(C6=CCC(COc7cccc(C#N)n7)(C(=O)O)CC6)C(C)(C)[C@@H]5CC[C@]43C)[C@@H]12 (mixture of isomers)	7.86
C=C(C)[C@@H]1CC[C@]2(NCCN3CCS(=O)(=O)CC3)CC[C@]3(C)[C@H](CC[C@@H]4[C@@]5(C)CC=C(C6=CC[C@](COc7ncccc7C#N)(C(=O)O)CC6)C(C)(C)[C@@H]5CC[C@]43C)[C@@H]12	8.74
C=C(C)[C@@H]1CC[C@]2(NCCN3CCS(=O)(=O)CC3)CC[C@]3(C)[C@H](CC[C@@H]4[C@@]5(C)CC=C(C6=CCC(COCc7ccccc7)(C(=O)O)CC6)C(C)(C)[C@@H]5CC[C@]43C)[C@@H]12 (mixture of isomers)	8.11
C=C(C)[C@@H]1CC[C@]2(NCCN3CCS(=O)(=O)CC3)CC[C@]3(C)[C@H](CC[C@@H]4[C@@]5(C)CC=C(C6=CCC(COc7ccncn7)(C(=O)O)CC6)C(C)(C)[C@@H]5CC[C@]43C)[C@@H]12 (mixture of isomers)	8.77
C=C(C)[C@@H]1CC[C@]2(NCCN3CCS(=O)(=O)CC3)CC[C@]3(C)[C@H](CC[C@@H]4[C@@]5(C)CC=C(C6=CC[C@](COc7ccccn7)(C(=O)O)CC6)C(C)(C)[C@@H]5CC[C@]43C)[C@@H]12	8.80
C=C(C)[C@@H]1CC[C@]2(NCCN3CCS(=O)(=O)CC3)CC[C@]3(C)[C@H](CC[C@@H]4[C@@]5(C)CC=C(C6=CCC(COc7cccc(Cl)c7)(C(=O)O)CC6)C(C)(C)[C@@H]5CC[C@]43C)[C@@H]12 (mixture of isomers)	7.97
C=C(C)[C@@H]1CC[C@]2(NCCN3CCS(=O)(=O)CC3)CC[C@]3(C)[C@H](CC[C@@H]4[C@@]5(C)CC=C(C6=CCC(COc7nccs7)(C(=O)O)CC6)C(C)(C)[C@@H]5CC[C@]43C)[C@@H]12 (mixture of isomers)	8.44

Let us move to another entry and its pEC50.
The compound C=C(C)[C@@H]1CC[C@]2(NCCN3CCS(=O)(=O)CC3)CC[C@]3(C)[C@H](CC[C@@H]4[C@@]5(C)CC=C(C6=CCC(COc7ccncc7)(C(=O)O)CC6)C(C)(C)[C@@H]5CC[C@]43C)[C@@H]12 (mixture of isomers) on Human immunodeficiency virus 1: pEC50 was 8.68

---

- methodNotes: Elimination half life in mouse at 1 mg/kg, iv
- Format: ADME, organism-based
- particulars: in vivo, read-out: beta t1/2 (converted)
quantityKind: half-life (h)
Numbers only, in h.

Noted for `C=C(C)[C@@H]1CC[C@]2(NCCN3CCS(=O)(=O)CC3)CC[C@]3(C)[C@H](CC[C@@H]4[C@@]5(C)CC=C(C6=CC[C@](COc7ncccc7C#N)(C(=O)O)CC6)C(C)(C)[C@@H]5CC[C@]43C)[C@@H]12` : its half-life reads 10.9

---

- methodNotes: Elimination half life in Cynomolgus monkey at 5 mg/kg, po
- Format: ADME, organism-based, Macaca fascicularis
- particulars: in vivo, read-out: beta t1/2 (converted)
quantityKind: half-life (h)
One number for each entry, in h.

Entry `C=C(C)[C@@H]1CC[C@]2(NCCN3CCS(=O)(=O)CC3)CC[C@]3(C)[C@H](CC[C@@H]4[C@@]5(C)CC=C(C6=CC[C@](COc7ncccc7C#N)(C(=O)O)CC6)C(C)(C)[C@@H]5CC[C@]43C)[C@@H]12` ; half-life = 11.4

---

- methodNotes: Aqueous solubility of compound
- Assay type: physicochemical
- particulars: buffer
quantityKind: solubility

molecule `C=C(C)[C@@H]1CC[C@]2(NCCN3CCS(=O)(=O)CC3)CC[C@]3(C)[C@H](CC[C@@H]4[C@@]5(C)CC=C(C6=CC[C@](COc7ncccc7C#N)(C(=O)O)CC6)C(C)(C)[C@@H]5CC[C@]43C)[C@@H]12` , solubility observed: < 1000 µg/mL

---

- Test system: Human immunodeficiency virus 1
- methodNotes: In vitro antiviral activity against fully replicating HIV1 NL4-3 harboring Gag T332S/V362I/prR41G mutant
- Assay type: functional, organism-based
- particulars: Human immunodeficiency virus 1, NL4-3
Field: pEC50. Provide a value for each of the compounds that follow.
Answers are plain numbers, as −log10 of the molar value.

Worked cases, answers included:
compound	pEC50
C=C(C)[C@@H]1CC[C@]2(NCCN3CCS(=O)(=O)CC3)CC[C@]3(C)[C@H](CC[C@@H]4[C@@]5(C)CC=C(C6=CCC(COc7ccc(F)cc7)(C(=O)O)CC6)C(C)(C)[C@@H]5CC[C@]43C)[C@@H]12 (mixture of isomers)	7.58
C=C(C)[C@@H]1CC[C@]2(NCCN3CCS(=O)(=O)CC3)CC[C@]3(C)[C@H](CC[C@@H]4[C@@]5(C)CC=C(C6=CCC(COc7ccc(Cl)cc7)(C(=O)O)CC6)C(C)(C)[C@@H]5CC[C@]43C)[C@@H]12 (stereo in doubt; 8)	7.30
C=C(C)[C@@H]1CC[C@]2(NCCN3CCS(=O)(=O)CC3)CC[C@]3(C)[C@H](CC[C@@H]4[C@@]5(C)CC=C(C6=CC[C@@](COc7cnccn7)(C(=O)O)CC6)C(C)(C)[C@@H]5CC[C@]43C)[C@@H]12	7.83
C=C(C)[C@@H]1CC[C@]2(NCCN3CCS(=O)(=O)CC3)CC[C@]3(C)[C@H](CC[C@@H]4[C@@]5(C)CC=C(C6=CC[C@](COc7ncccc7C#N)(C(=O)O)CC6)C(C)(C)[C@@H]5CC[C@]43C)[C@@H]12	8.10
C=C(C)[C@@H]1CC[C@]2(NCCN3CCS(=O)(=O)CC3)CC[C@]3(C)[C@H](CC[C@@H]4[C@@]5(C)CC=C(C6=CCC(COc7ccccn7)(C(=O)O)CC6)C(C)(C)[C@@H]5CC[C@]43C)[C@@H]12 (mixture of isomers)	7.84
C=C(C)[C@@H]1CC[C@]2(NCCN3CCS(=O)(=O)CC3)CC[C@]3(C)[C@H](CC[C@@H]4[C@@]5(C)CC=C(C6=CCC(COc7ccccc7F)(C(=O)O)CC6)C(C)(C)[C@@H]5CC[C@]43C)[C@@H]12 (mixture of isomers)	7.71

Take each entry in turn and give its pEC50.
1. C=C(C)[C@@H]1CC[C@]2(NCCN3CCS(=O)(=O)CC3)CC[C@]3(C)[C@H](CC[C@@H]4[C@@]5(C)CC=C(C6=CCC(COCc7ccccc7)(C(=O)O)CC6)C(C)(C)[C@@H]5CC[C@]43C)[C@@H]12 (mixture of isomers)
2. C=C(C)[C@@H]1CC[C@]2(NCCN3CCS(=O)(=O)CC3)CC[C@]3(C)[C@H](CC[C@@H]4[C@@]5(C)CC=C(C6=CCC(COc7ccncn7)(C(=O)O)CC6)C(C)(C)[C@@H]5CC[C@]43C)[C@@H]12 (mixture of isomers)

1. 7.66
2. 7.16

The reported numbers originate from ChEMBL document CHEMBL6071211.
